system_name: T1, ECF37_2513
T1 chain: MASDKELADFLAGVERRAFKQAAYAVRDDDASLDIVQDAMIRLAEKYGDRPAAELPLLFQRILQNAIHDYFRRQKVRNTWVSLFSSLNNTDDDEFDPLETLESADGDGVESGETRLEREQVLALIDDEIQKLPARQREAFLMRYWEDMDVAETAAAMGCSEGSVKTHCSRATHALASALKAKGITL
measured_parameter: fold repression

binder | observed_result
AS16_973 (protein) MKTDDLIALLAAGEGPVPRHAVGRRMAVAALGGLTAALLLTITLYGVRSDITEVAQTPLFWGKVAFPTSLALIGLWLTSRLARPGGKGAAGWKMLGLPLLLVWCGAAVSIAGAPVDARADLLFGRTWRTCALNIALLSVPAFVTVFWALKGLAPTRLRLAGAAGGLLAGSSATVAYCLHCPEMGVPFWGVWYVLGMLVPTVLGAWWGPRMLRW | 1.04
AS20_992 (protein) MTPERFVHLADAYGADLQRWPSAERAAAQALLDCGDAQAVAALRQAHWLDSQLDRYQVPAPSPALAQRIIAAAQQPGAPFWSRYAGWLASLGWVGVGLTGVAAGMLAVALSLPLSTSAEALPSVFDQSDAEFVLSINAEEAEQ | 1.98
AS27_4265 (protein) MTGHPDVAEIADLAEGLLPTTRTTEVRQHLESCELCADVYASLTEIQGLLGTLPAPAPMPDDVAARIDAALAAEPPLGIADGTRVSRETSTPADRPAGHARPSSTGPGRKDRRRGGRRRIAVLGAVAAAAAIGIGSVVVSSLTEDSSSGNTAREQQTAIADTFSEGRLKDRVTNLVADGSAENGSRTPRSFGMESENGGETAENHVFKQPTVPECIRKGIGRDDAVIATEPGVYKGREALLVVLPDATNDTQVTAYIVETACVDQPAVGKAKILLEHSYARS | 2.03
